Examples of binders with documented kon follow.
- target: norovirus GII.3 TCH strain virus-like particle (VLP) (norovirus GII.3 TCH strain)
- assaySummary: BLI (BLItz), biotinylated peptide on SA chip, VLP in solution
Where no end group is shown, it is not given here.

{"columns": ["binder", "uom", "kon"],
 "data": [
  ["VVGFGRRSLF (also: biotinylated, residue not given here, spacer sequence added, letters and position not given here) [norovirus-binding peptide of SEQ ID NO: 156]", "M⁻¹ s⁻¹", 67300],
  ["YRRSKSEIFV (also: biotinylated, residue not given here, spacer sequence added, letters and position not given here) [norovirus-binding peptide of SEQ ID NO: 59]", "M⁻¹ s⁻¹", 805000],
  ["KYRATICHTV (also: biotinylated, residue not given here, spacer sequence added, letters and position not given here) [norovirus-binding peptide of SEQ ID NO: 52]", "M⁻¹ s⁻¹", 747000],
  ["SVMVTRSLFG (also: biotinylated, residue not given here, spacer sequence added, letters and position not given here) [norovirus-binding peptide of SEQ ID NO: 163]", "M⁻¹ s⁻¹", "1.03e+06"],
  ["ICSSWFPSVH (also: biotinylated, residue not given here, spacer sequence added, letters and position not given here) [norovirus-binding peptide of SEQ ID NO: 48]", "M⁻¹ s⁻¹", 810000],
  ["YVIRNSDRHN (also: biotinylated, residue not given here, spacer sequence added, letters and position not given here) [norovirus-binding peptide of SEQ ID NO: 43]", "M⁻¹ s⁻¹", "1.18e+06"],
  ["NFRVPIRFTH (also: biotinylated, residue not given here, spacer sequence added, letters and position not given here) [norovirus-binding peptide of SEQ ID NO: 131]", "M⁻¹ s⁻¹", 1660],
  ["VELFLLTSSC (also: biotinylated, residue not given here, spacer sequence added, letters and position not given here) [norovirus-binding peptide of SEQ ID NO: 155]", "M⁻¹ s⁻¹", 115]
]}
